- study system: IL-23α/IL-12β and IL-23R (Homo sapiens, UniProt Q5VWK5)
- Construct: ILB-H52W5 (IL-23α/IL-12β)
- Sequence (Q5VWK5 24-353 limits assumed): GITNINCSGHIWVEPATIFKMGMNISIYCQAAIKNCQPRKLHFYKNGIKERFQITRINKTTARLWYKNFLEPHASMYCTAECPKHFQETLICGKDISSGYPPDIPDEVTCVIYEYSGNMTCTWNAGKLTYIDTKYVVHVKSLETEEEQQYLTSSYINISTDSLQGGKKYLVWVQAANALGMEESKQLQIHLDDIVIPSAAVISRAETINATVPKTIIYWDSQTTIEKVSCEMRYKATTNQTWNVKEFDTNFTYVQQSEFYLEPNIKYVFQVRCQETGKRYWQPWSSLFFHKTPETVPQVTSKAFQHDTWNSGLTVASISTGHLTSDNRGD
- method summary: IL-23α/IL-12β and IL-23R binding assay (TR-FRET/HTRF)
- experimental context: inhibition of the binding of IL-23α/IL-12β to IL-23R, TR-FRET; both proteins 0.3 nM
Positions of bridges follow the written chain, without caps; N, C: chain ends. Non-standard residues stand in square brackets, D forms with d. Residues, ends and D or L forms follow the SMILES beside them. Trp(7-cPr) = N[C@@H](Cc1c[nH]c2c(C3CC3)cccc12)C(=O)O; Trp(7-Me) = Cc1cccc2c(C[C@H](N)C(=O)O)c[nH]c12; 2Nal = N[C@@H](Cc1ccc2ccccc2c1)C(=O)O; AEF = NCCOc1ccc(C[C@H](N)C(=O)O)cc1; 3Pal = N[C@@H](Cc1cccnc1)C(=O)O; Cit = NC(=O)NCCC[C@H](N)C(=O)O; Pen = CC(C)(S)[C@H](N)C(=O)O; Dab = NCC[C@H](N)C(=O)O; Thp = NC1(C(=O)O)CCOCC1; Sar = CNCC(=O)O
metric: pIC50
In plain terms, pIC50 is the concentration in mol/L turned into minus its base-10 logarithm.

compound: CC(=O)N[C@@H]1C(=O)N[C@@H](Cc2c[nH]cn2)C(=O)N[C@@H]([C@@H](C)O)C(=O)N[C@@H](Cc2c[nH]c3c(C4CC4)cccc23)C(=O)N[C@@H](CCC(N)=O)C(=O)N[C@H](C(=O)N[C@@H](Cc2ccc(OCCN)cc2)C(=O)N[C@@H](Cc2ccc3ccccc3c2)C(=O)NC2(C(=O)N[C@@H](CCC(=O)O)C(=O)N[C@@H](CC(N)=O)C(=O)N[C@@H](Cc3cccnc3)C(=O)N(C)CC(N)=O)CCOCC2)C(C)(C)SSC1(C)C [Compound 13] (Ac-[Pen]HT[Trp(7-cPr)]Q[Pen][AEF][2Nal][Thp]EN[3Pal][Sar]-NH2; disulfide 1-6)
pIC50: 10.42

What pIC50 value was documented for this compound, CC(=O)NCCCC[C@@H]1NC(=O)[C@H](Cc2c[nH]c3c(C)cccc23)NC(=O)[C@H]([C@@H](C)O)NC(=O)[C@H](Cc2c[nH]cn2)NC(=O)[C@@H](NC(C)=O)CCCC[C@@H](C(=O)N[C@@H](Cc2ccc(OCCN)c3c2CCC3)C(=O)N[C@@H](Cc2ccc3ccccc3c2)C(=O)NC2(C(=O)N[C@@H](CCC(=O)O)C(=O)N[C@@H](CC(N)=O)C(=O)N[C@@H](Cc3cccnc3)C(=O)N(C)CC(N)=O)CCOCC2)NC1=O ?
10.00

Try CC(=O)N[C@@H]1C(=O)N[C@@H](Cc2c[nH]cn2)C(=O)N[C@@H]([C@@H](C)O)C(=O)N[C@@H](Cc2c[nH]c3c(C)cccc23)C(=O)N[C@@H](CCCNC(N)=O)C(=O)N[C@H](C(=O)N[C@@H](Cc2ccc(OCCN)cc2)C(=O)N[C@@H](Cc2ccc3ccccc3c2)C(=O)NC2(C(=O)N[C@@H](CCC(=O)O)C(=O)N[C@@H](CC(N)=O)C(=O)N[C@@H](Cc3cccnc3)C(=O)N(C)CC(N)=O)CCOCC2)C(C)(C)SSC1(C)C [Compound 2] (Ac-[Pen]HT[Trp(7-Me)][Cit][Pen][AEF][2Nal][Thp]EN[3Pal][Sar]-NH2; disulfide 1-6) next.
10.11

And for CC(=O)N[C@H]1CC(=O)NCC[C@@H](C(=O)N[C@@H](Cc2ccc(OCCN)cc2)C(=O)N[C@@H](Cc2ccc3ccccc3c2)C(=O)NC2(C(=O)N[C@@H](CCC(=O)O)C(=O)N[C@@H](CC(N)=O)C(=O)N[C@@H](Cc3cccnc3)C(=O)N(C)CC(N)=O)CCOCC2)NC(=O)[C@H](CCC(N)=O)NC(=O)[C@H](Cc2c[nH]c3c(C)cccc23)NC(=O)[C@H]([C@@H](C)O)NC(=O)[C@H](Cc2c[nH]cn2)NC1=O [Compound 22] (Ac-DHT[Trp(7-Me)]Q[Dab][AEF][2Nal][Thp]EN[3Pal][Sar]-NH2; lactam 1-6) ?
9.89
